system: Transient receptor potential cation channel subfamily V member 1 (Homo sapiens, UniProt Q8NER1)
Sequence (Q8NER1 whole entry): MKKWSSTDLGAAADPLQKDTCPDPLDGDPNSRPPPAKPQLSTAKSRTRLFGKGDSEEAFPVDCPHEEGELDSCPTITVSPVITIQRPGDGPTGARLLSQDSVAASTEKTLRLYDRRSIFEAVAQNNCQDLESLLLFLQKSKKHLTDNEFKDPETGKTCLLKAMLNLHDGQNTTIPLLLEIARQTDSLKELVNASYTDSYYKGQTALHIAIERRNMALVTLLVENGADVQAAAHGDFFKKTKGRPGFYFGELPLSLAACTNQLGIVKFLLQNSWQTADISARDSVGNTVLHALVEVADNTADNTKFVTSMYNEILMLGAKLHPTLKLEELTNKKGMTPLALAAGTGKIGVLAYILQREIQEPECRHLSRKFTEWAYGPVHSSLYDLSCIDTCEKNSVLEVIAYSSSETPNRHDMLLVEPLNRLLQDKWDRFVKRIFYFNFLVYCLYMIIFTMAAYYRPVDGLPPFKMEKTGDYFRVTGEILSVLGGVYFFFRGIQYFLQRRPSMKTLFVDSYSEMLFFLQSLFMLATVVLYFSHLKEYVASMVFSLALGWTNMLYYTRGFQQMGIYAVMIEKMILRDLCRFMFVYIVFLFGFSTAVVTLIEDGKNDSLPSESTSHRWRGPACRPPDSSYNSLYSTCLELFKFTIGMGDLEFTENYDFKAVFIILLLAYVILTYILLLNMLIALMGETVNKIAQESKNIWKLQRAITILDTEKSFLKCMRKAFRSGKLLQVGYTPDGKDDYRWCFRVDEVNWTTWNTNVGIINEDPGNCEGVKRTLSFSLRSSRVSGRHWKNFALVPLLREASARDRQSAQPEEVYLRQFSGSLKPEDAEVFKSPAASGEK
assayText: Agonistic activity against vanilloid receptor 1 (TRPV1)

| compound | Ki |
| --- | --- |
| COc1cc(CNC(=S)NCC(COC(=O)C(C)(C)C)Cc2ccc(C)c(C)c2)ccc1O (stereo unspecified) | < 10 nM |
